# tested_on: human GPR120 (Homo sapiens)
# Construct: expressed in transfected cells; host or cells: HEK293T, transient transfection with PEI
# Sequence (Q5NUL3 1-361): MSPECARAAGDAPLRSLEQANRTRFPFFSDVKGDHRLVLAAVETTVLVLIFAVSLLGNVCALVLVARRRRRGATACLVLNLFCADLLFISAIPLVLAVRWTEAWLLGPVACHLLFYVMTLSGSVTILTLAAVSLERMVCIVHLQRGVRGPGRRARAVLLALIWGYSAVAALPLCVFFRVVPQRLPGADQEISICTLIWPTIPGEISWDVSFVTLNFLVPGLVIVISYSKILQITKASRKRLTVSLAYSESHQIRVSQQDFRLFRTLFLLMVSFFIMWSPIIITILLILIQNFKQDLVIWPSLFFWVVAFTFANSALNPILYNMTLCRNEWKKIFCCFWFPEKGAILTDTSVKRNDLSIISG
# assay_method_text: Human GPR120-β Arrestin 2 BRET agonist assay
# Assay type: cell-based
# reported_conditions: HEK293T cells transiently co-expressing hGPR120-eYFP and β-arrestin 2-RLuc; BRET normalised to DMSO (0%) and TUG-891 (100%); read-out: hGPR120 pEC50 (converted)
measurement_label: EC50 (µM)

[
  {
    "compound": "Cc1ccc(OC2CCC2)cc1N1CCc2cc(CCC(=O)O)ccc2C1",
    "result_units": "µM",
    "EC50": 0.0501
  },
  {
    "compound": "O=C(O)CCc1ccc2c(c1)CCN(c1cccnc1OC1CCC1)C2",
    "result_units": "µM",
    "EC50": 7.94
  },
  {
    "compound": "O=C(O)CCc1cc2c(cc1F)CN(c1cc(OC3CCC3)ccc1F)CC2",
    "result_units": "µM",
    "EC50": 0.0631
  },
  {
    "compound": "O=C(O)CCc1ccc2c(c1)CCN(c1ccnc(C3CC3)n1)C2",
    "result_units": "µM",
    "EC50": 25.1
  },
  {
    "compound": "O=C(O)C1CC1c1ccc2c(c1)CCN(c1cccc(Oc3ccccc3)c1)C2 (single isomer, unassigned) [38 isomer 2]",
    "result_units": "µM",
    "EC50": 0.0398
  }
]

[I] O=C(O)CCc1ccc2c(c1)CCN(c1nc(OC3CCC3)ccc1F)C2
[II] O=C(O)CCc1ccc2c(c1)CCN(c1cc(OC(F)(F)F)ccc1F)C2
[III] O=C(O)C1CC1c1ccc2c(c1)CCN(c1cccc(Oc3ccccc3)c1)C2 (stereo not drawn) [Compound 38]
stdin: Please list these compounds in decreasing order of EC50. To answer, arrange all of the labels according to the requested order.
stdout: III, II, I
(III: 0.0631 µM, II: 0.0398 µM, I: 0.0158 µM)

====

# tested_on: human GPR120 (Homo sapiens, UniProt Q5NUL3)
# Construct: expressed in transfected cells; host or cells: HEK293T, transient transfection with PEI
# assay_method_text: Human GPR120-β Arrestin 2 BRET agonist assay
# Type: cell-based
# reported_conditions: HEK293T cells transiently co-expressing hGPR120-eYFP and β-arrestin 2-RLuc; BRET normalised to DMSO (0%) and TUG-891 (100%); read-out: hGPR120 pEC50 (converted)
# Experimental: pEC50 data was obtained by the following procedure: Human GPR120-β Arrestin 2 Bio-Luminescence Resonance Energy Transfer (BRET) Agonist Assay Procedure HEK293T cells were cultured in growth media composed of DMEM L-glutamine media supplemented with 10% (v:v) fetal bovine serum (FBS) and 1% (v:v) 10,000 units penicillin/10 mgml^−1 streptomycin at 37° C., 5% CO2. […]
measurement_label: EC50 (µM)

[
  {
    "compound": "O=C(O)CCc1ccc2c(c1)CCN(c1cc(F)cc(-c3ccccc3)c1)C2 [Compound 24]",
    "assay_result": 0.398
  },
  {
    "compound": "O=C(O)CCc1ccc2c(c1)CCN(c1cccc(OC3CCC3)n1)C2 [Compound 21]",
    "assay_result": 0.0398
  },
  {
    "compound": "CC(C)Oc1ccc(F)c(N2CCc3ccc(CCC(=O)O)cc3CC2)c1 [Compound 48]",
    "assay_result": 0.2
  },
  {
    "compound": "O=C(O)CCc1ccc2c(c1)CN(c1cc(OC(F)(F)F)ccc1F)CC2 [Compound 33]",
    "assay_result": 1.26
  }
]

[P] O=C(O)CCc1ccc2c(c1)CCN(c1cc(F)cc(OC3CCC3)c1)C2 [Compound 19]
[Q] O=C(O)C1CC1c1ccc2c(c1)CCN(c1cc(OC3CCC3)ccc1F)CC2 (stereo not drawn) [Compound 53]
stdin: Please tell me which of the two, P or Q , has the higher reported EC50 value. Write down the label attached to your selection.
stdout: Q
(Q: 0.1 µM, P: 0.0251 µM)
